Tested on: pENSA
Assay: pENSA level by immunofluorescence (described method: in vitro kinase analysis with GST-tag-MASTL and His-tag-ENSA)
Format: cell-based
Details: read-out: IC50(nM) pENSA
Property: IC50; scope: individual compounds
# unit: nM | format: bare number

Guide cases for IC50, answers given:
compound=O=S(=O)(NCCO)c1ccc(Nc2nc(Nc3cc(C4CC4)[nH]n3)c3ccccc3n2)cc1 unit_text=nM numeric_value=378
compound=c1ccc(CNc2nc(Nc3cc(C4CC4)[nH]n3)c3ccccc3n2)cc1 unit_text=nM numeric_value=363
compound=COC(=O)c1ccc(Nc2nc(Nc3cc(C4CC4)[nH]n3)c3ccccc3n2)cc1 unit_text=nM numeric_value=680
compound="OCCN1CCN(c2nc(Nc3cc(C4CC4)[nH]n3)c3ccccc3n2)CC1 [compound 12b]" unit_text=nM numeric_value=852

Prompt: What value of IC50 has been reported for the following compound? `O=C(O)Cc1ccc(Nc2nc(Nc3cc(C4CC4)[nH]n3)c3ccccc3n2)cc1`
Response: 89.1

Prompt: Follow-up item: CC(C)S(=O)(=O)N1CC2CCC1CN2c1nc(Nc2cc(C3CC3)[nH]n2)c2ccccc2n1 (stereo not shown) [compound 24a]
Response: 263

Prompt: Follow-up item: c1ccc2c(Nc3cc(C4CC4)[nH]n3)nc(N3CC4CCC3CN4)nc2c1 (stereo not shown)
Response: 66.5

Prompt: Follow-up item: `c1ccc(Nc2nc(Nc3cc(C4CC4)[nH]n3)c3ccccc3n2)cc1`
Response: 501

Prompt: Follow-up item: `c1ccc(CCNc2nc(Nc3cc(C4CC4)[nH]n3)c3ccccc3n2)cc1`
Response: 491

Prompt: Follow-up item: c1ccc2c(Nc3cc(C4CC4)[nH]n3)nc(N3CC4CC3CN4)nc2c1 (stereo not shown)
Response: 645
